- Target Under Test: SGSR-112 (BRET^2 tagged str-112) (Caenorhabditis elegans)
- Sequence (O16913 entry or part of it): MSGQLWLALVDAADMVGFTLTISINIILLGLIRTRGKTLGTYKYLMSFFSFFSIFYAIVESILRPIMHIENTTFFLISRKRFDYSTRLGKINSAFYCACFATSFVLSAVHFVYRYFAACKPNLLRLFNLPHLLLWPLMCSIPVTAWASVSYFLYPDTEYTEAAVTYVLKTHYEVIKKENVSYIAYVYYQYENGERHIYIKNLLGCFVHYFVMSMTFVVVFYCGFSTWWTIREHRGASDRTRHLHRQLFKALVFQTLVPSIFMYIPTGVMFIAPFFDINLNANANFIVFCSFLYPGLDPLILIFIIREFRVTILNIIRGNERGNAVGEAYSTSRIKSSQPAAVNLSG
- Assay Comment: BRET^2 response of SGSR-112 to volatile ligands, plate based
Attribute Measured: EC50 (nM)
Express the result in nM but write the number alone.

# return recorded EC50 for input CCCC(C)=O 0.15
